tested on: blackgrass (Alopecurus myosuroides); assay: Test C greenhouse herbicide test, pre- and postemergence; type: in vivo; details: postemergence, 125 g ai/ha; scale 0 to 100, 0 no effect, 100 complete control
Would you mind telling me the reported Blackgrass plant response rating of each entry?
Give bare numbers.

These recorded examples may help you get a feel for the data.
> print(dat)
                                smilesinput                  reportedendpoint  measured
1  Cc1ccc2ccccc2c1-c1c(OC(=O)N2CCOCC2)c(Br)nn(C)c1=O  Blackgrass plant response rating         0
2  COC(=O)Oc1cnn(C)c(=O)c1-c1c(C)ccc2ccccc12  Blackgrass plant response rating        20
3  COC(=O)Oc1c(C)nn(C)c(=O)c1-c1c([N+](=O)[O-])ccc2ccccc12  Blackgrass plant response rating        30
4  CC(=O)Oc1c(C)nn(C)c(=O)c1-c1c([N+](=O)[O-])ccc2ccccc12  Blackgrass plant response rating        40

// fetch Blackgrass plant response rating; item: `CCC(=O)Oc1c(C)nn(C)c(=O)c1-c1ccc(Br)c2ccccc12` ; system: blackgrass (Alopecurus myosuroides) 70
